# log10 of IC50 values compiled below
# study.system: human blood platelet PDE5 (Homo sapiens)
# Construct: obtained by suitably treating various tissues and separating the enzyme with FPLC; from tissue; host or cells: human blood platelets
# measurement.notes: PDE5 enzyme inhibition activity test (scintillation proximity)
# Type: biochemical
# experimental.conditions: as repeated in the PDE6 table
Please keep in mind that the values are log10 of IC50 expressed in nM.

The following compounds have reported results that may help.
CCCOc1ccc(NC(=O)C(F)(F)F)cc1-c1nc(CC)c(CC)c(=O)[nH]1 [Example 98] :: 0.44
CCCOc1ccc(NC(=O)CC)cc1-c1nc(CC)c(CC)c(=O)[nH]1 [Example 54] :: 0.08

Could you now consider this next compound?
The recorded log10 of IC50 for CCCOc1ccc(S(=O)(=O)NC(CC(N)=O)C(=O)O)cc1-c1nc(CC)c(CC)c(=O)[nH]1 (stereo not shown) [Example 126] is 0.25

----------
# study.system: human blood platelet PDE5 (Homo sapiens, UniProt O76074)
# Construct: obtained by suitably treating various tissues and separating the enzyme with FPLC; from tissue; host or cells: human blood platelets
# measurement.notes: PDE5 enzyme inhibition activity test (scintillation proximity)
# Type: biochemical
# experimental.conditions: as repeated in the PDE6 table
# pIC50 values compiled below
As a rule, pIC50 stands for the negative log10 of the concentration, concentration in M.

The following molecules have reported results that may help.
CCCOc1ccc(C(=O)NC2CCC(C(=O)OC)NC2)cc1-c1nc(CC)c(CC)c(=O)[nH]1 (stereo not shown) :: 9.35
CCCOc1ccc(NC(=S)NCC)cc1-c1nc(CC)c(CC)c(=O)[nH]1 :: 8.43
CCCOc1ccc(S(=O)(=O)N2CCCC2C(=O)O)cc1-c1nc(CC)c(CC)c(=O)[nH]1 (stereo not shown) :: 8.69

Could you now consider this next molecule?
The recorded pIC50 for CCCOc1ccc(S(=O)(=O)NCCN2CCOCC2)cc1-c1nc(CC)c(CC)c(=O)[nH]1 is 8.87

----------
# study.system: PDE6 in bovine retina (Bos taurus, UniProt P11541+P23439)
# Construct: obtained by suitably treating various tissues and separating the enzyme with FPLC; from tissue; host or cells: bovine retina
# measurement.notes: PDE6 enzyme inhibition activity test (scintillation proximity)
# Format: biochemical
# experimental.conditions: selectivity, ratio of IC50 PDE6/IC50 PDE5
yes (1) means recorded PDE6 IC50/PDE5 IC50 is 10 or above; no (0) means it is below 10.

Some solved cases for reference:
CCCOc1ccc(NC(=O)C2CCCCC2)cc1-c1nc(CC)c(CC)c(=O)[nH]1 :: yes (1)
CCCOc1ccc(NS(C)(=O)=O)cc1-c1nc(CC)c(CC)c(=O)[nH]1 :: yes (1)
CCCOc1ccc(NC(=O)C2CCCN2C(C)=O)cc1-c1nc(CC)c(CC)c(=O)[nH]1 (centres unmarked) :: no (0)
CCCOc1ccc(NC(=O)CCCNC(C)=O)cc1-c1nc(CC)c(CC)c(=O)[nH]1 :: yes (1)
CCCOc1ccc(C(=O)NC(C)C(=O)O)cc1-c1nc(CC)c(CC)c(=O)[nH]1 (centres unmarked) :: yes (1)

Q. I'd appreciate it if you could say whether CCCOc1ccc(NC(=O)c2ccccc2)cc1-c1nc(CC)c(CC)c(=O)[nH]1 has PDE6 IC50/PDE5 IC50 at least equal to 10.
A. yes (1)

Q. I'd appreciate it if you could say whether CCCOc1ccc(NC(N)=O)cc1-c1nc(CC)c(CC)c(=O)[nH]1 has PDE6 IC50/PDE5 IC50 at least equal to 10.
A. yes (1)

----------
# study.system: PDE6 in bovine retina (Bos taurus, UniProt P11541+P23439)
# Construct: obtained by suitably treating various tissues and separating the enzyme with FPLC; from tissue; host or cells: bovine retina
# Sequence (P11541 2-856 limits assumed): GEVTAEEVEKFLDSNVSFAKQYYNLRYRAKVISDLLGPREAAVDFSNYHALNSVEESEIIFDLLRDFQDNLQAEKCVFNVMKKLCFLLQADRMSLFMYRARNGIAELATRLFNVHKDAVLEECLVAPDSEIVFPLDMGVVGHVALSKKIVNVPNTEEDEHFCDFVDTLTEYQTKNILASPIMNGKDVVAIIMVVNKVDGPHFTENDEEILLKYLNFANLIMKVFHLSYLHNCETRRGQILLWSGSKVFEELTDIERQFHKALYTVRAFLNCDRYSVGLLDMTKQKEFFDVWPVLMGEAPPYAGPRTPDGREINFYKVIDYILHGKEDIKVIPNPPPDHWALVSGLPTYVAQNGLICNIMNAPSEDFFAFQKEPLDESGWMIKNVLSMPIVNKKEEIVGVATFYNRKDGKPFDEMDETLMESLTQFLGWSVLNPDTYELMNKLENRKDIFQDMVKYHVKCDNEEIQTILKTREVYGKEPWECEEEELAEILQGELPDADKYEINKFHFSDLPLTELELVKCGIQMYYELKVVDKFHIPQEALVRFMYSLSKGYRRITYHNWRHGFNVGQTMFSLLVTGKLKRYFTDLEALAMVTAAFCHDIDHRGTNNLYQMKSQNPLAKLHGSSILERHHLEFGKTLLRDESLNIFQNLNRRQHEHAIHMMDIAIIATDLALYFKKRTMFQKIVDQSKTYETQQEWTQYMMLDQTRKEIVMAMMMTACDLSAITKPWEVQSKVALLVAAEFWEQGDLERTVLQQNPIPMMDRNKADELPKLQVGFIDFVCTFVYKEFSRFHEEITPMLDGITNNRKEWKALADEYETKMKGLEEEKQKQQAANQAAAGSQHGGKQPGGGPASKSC
# Sequence (P23439 2-850 limits assumed): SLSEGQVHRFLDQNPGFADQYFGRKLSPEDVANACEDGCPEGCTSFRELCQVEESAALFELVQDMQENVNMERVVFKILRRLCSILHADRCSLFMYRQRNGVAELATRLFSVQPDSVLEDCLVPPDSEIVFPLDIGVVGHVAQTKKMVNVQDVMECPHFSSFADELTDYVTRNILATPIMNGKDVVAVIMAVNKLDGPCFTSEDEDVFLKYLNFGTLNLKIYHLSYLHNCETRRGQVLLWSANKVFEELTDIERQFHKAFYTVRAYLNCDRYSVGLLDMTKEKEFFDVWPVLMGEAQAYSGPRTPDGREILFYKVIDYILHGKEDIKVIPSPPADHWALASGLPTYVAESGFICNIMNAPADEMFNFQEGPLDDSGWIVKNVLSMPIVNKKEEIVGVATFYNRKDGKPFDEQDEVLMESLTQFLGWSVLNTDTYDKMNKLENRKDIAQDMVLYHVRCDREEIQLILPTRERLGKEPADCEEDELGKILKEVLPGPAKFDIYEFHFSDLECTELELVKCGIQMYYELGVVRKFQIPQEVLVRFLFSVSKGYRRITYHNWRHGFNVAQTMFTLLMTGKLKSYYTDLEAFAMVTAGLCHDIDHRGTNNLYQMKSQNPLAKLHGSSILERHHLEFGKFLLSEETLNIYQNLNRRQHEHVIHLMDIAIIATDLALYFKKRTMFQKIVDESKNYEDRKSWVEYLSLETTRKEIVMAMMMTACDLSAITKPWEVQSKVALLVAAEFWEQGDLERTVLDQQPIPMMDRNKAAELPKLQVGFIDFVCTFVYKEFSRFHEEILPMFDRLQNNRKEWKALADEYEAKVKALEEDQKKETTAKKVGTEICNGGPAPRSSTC
# measurement.notes: PDE6 enzyme inhibition activity test (scintillation proximity)
# Assay type: biochemical
# experimental.conditions: PDE6 separated from bovine retina; read-out: PDE6 IC50
measured.metric: IC50 (µM)
Could you give me the number in µM? Just the number is fine.

The following molecules have reported results that may help.
CCCOc1ccc(NC(=O)c2ccccc2)cc1-c1nc(CC)c(CC)c(=O)[nH]1 :: 0.0074
CCCOc1ccc(S(=O)(=O)N2CCCC2C(=O)O)cc1-c1nc(CC)c(CC)c(=O)[nH]1 (centres unmarked) :: 0.0406
CCCOc1ccc(S(=O)(=O)NC(CC(N)=O)C(=O)O)cc1-c1nc(CC)c(CC)c(=O)[nH]1 (centres unmarked) :: 0.0549
CCCOc1ccc(NC(=O)C(N)=O)cc1-c1nc(CC)c(CC)c(=O)[nH]1 :: 0.0187
CCCOc1ccc(NC(=O)NCC)cc1-c1nc(CC)c(CC)c(=O)[nH]1 :: 0.0164
CCCOc1ccc(S(=O)(=O)N(CCO)CCN2CCOCC2)cc1-c1nc(CC)c(CC)c(=O)[nH]1 :: 0.00966
CCCOc1ccc(C(=O)NCCCS(=O)(=O)O)cc1-c1nc(CC)c(CC)c(=O)[nH]1 :: 0.0104
CCCOc1ccc(NC(=S)NCC)cc1-c1nc(CC)c(CC)c(=O)[nH]1 :: 0.0428

The recorded IC50 for CCCOc1ccc(S(=O)(=O)NCCN2CCOCC2)cc1-c1nc(CC)c(CC)c(=O)[nH]1 is 0.0528

The recorded IC50 for CCCOc1ccc(C(=O)N2CCCCC2)cc1-c1nc(CC)c(CC)c(=O)[nH]1 is 0.00819

The recorded IC50 for CCCOc1ccc(C(=O)N2CCN(CCO)CC2)cc1-c1nc(CC)c(CC)c(=O)[nH]1 is 0.0318
